Applied conditions: in toluene, 298.15 K

{"Molecule": "CNC(=O)c1cc(Oc2ccc(NC(=O)Nc3ccc(Cl)c(C(F)(F)F)c3)cc2)ccn1", "solubility (mole fraction)": 0.00313}

----------
Applied conditions: in cyclohexanone, 303.15 K
Measurement kind: solubility (mole fraction)

{"Molecule": "CNC(=O)c1cc(Oc2ccc(NC(=O)Nc3ccc(Cl)c(C(F)(F)F)c3)cc2)ccn1", "Measured value": 0.0209}

----------
Applied conditions: in isobutanol, 293.15 K

{"Molecule": "CNC(=O)c1cc(Oc2ccc(NC(=O)Nc3ccc(Cl)c(C(F)(F)F)c3)cc2)ccn1", "solubility (mole fraction)": 0.000755}
